- System: CAKI-1 renal
- Assay comment: NCI-60 one-dose screen, 48 h (100 = growth as untreated, 0 = no growth, -100 = all killed)
- Applied conditions: 10 µM unless noted
This is part of a sample that, as a whole, favours compounds with a hit. Of some 83,000 tested, about 20% had one in any assay.
Assay metric: growth (%)
One number for each entry, in %.

Working through the 5 compounds below one at a time, give growth for each.
1. Cc1cc(Oc2ccccc2)ccc1Nc1ncnc2ccc(-c3cnc(Cl)c(NS(C)(=O)=O)c3)cc12
2. CCCCn1c(C)nc2cc(Nc3nc(N4CCCCC4)nc4nc[nH]c34)ccc21
3. CN1[C@@H]2CC[C@H]1/C(=C\c1ccccc1)C1=C2[C@@H](c2ccccc2)C(C#N)=C(N)O1
4. Cc1nn(-c2ccccc2)c2c1N=c1s/c(=C\c3cn(-c4ccccc4)nc3-c3ccc(Cl)cc3)c(=O)n1C(C)N2 (stereo not given)
5. CS(=O)(=O)N1CCc2c(-c3cnc(N)nc3)nc(N3CCOCC3)nc21

[2.11, 31.1, 87.4, 83.6, -8.15]

----------
- System: SNB-75 CNS
- Assay comment: NCI-60 one-dose screen, 48 h (100 = growth as untreated, 0 = no growth, -100 = all killed)
- Applied conditions: 10 µM unless noted
Compounds without any hit were thinned out: in the full panel of roughly 83,000, 20% have a hit.
So basically, if growth comes in under 80% it's yes (1), and if it's 80% or more it's no (0).

Worked cases, answers included:
compound=CC(C)(C)c1cnc(CSc2cnc(NC(=O)C3CCNCC3)s2)o1 category="yes (1)"
compound="Nc1nc(=S)c2ncn(C3OC(COC(=O)c4ccc(Cl)cc4)C(OC(=O)c4ccc(Cl)cc4)C3OC(=O)c3ccc(Cl)cc3)c2[nH]1 (stereo unspecified)" category="yes (1)"
compound=COc1c(OCCCN2CCOCC2)ccc2c3n(c(=NC(=O)c4cnc(N)nc4)nc12)CCN3 category="yes (1)"

Now for a further compound.
Does N#Cc1ccc(-n2nnc3ccccc32)cc1C#N have growth strictly under 80%?
no (0)

----------
- System: LOX IMVI melanoma
- Assay comment: NCI-60 one-dose screen, 48 h
- Applied conditions: 10 µM unless noted
About 83,000 compounds went through this panel and 20% of them were active in at least one assay; those are over-represented in the sample as a whole. Calls of active or inactive are those of the source. The calls were made as follows: active = growth percent below 10; inactive = the rest.
Pick one: active, inactive

compound=C=CC(=O)Nc1cc(Nc2nccc(-c3cn(C)c4ccccc34)n2)c(OC)cc1N(C)CCN(C)C measured_target="LOX IMVI melanoma" category=active
compound=Cc1cc([C@@H](C)Nc2ccccc2C(=O)O)c2nc(N3CCOCC3)cc(=O)n2c1 measured_target="LOX IMVI melanoma" category=inactive
compound="CC(C)=CCc1cc2c(cc1O)C1=C(C(=O)C3=C(NCCS3(=O)=O)C1=O)C(C=C(C)C)O2 (configuration not stated)" measured_target="LOX IMVI melanoma" category=active

Test call for this compound, please: CNc1ncc2cc(-c3cc(NC(=O)NCCC(C)(C)C)c(F)cc3C)c(C)nc2n1
active

Test call for this compound, please: Cc1ccsc1C(NC(=O)c1ccccc1)c1cc(Cl)c2cccnc2c1O (configuration not stated)
active

Test call for this compound, please: CN(C)CCn1c(=O)c2c3cc4c(cc3n(CCN(C)C)c2c2ccc(Cl)cc21)OCO4
active

Test call for this compound, please: COc1cccc2cc(-c3nc(C4CCC(C(=O)O)CC4)n4ncnc(N)c34)[nH]c12 (configuration not stated)
active

Test call for this compound, please: O=C1NC(=O)/C(=C/c2ccc3nccc(-c4ccncc4)c3c2)S1
active
